SYSTEM_NAME: Coagulation factor XII (Homo sapiens) (UniProt P00748)
Sequence (P00748 20-372 limits assumed): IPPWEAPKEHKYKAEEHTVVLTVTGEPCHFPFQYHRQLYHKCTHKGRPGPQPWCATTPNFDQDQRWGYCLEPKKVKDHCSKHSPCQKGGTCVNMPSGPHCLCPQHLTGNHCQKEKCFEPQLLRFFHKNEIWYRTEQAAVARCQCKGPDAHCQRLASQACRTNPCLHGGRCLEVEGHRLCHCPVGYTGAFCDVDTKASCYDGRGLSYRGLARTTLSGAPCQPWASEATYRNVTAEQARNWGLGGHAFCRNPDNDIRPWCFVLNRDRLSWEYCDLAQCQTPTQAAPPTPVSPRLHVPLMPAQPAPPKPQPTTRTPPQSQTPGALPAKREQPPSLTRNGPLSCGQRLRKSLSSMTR
Sequence (P00748 373-615 limits assumed): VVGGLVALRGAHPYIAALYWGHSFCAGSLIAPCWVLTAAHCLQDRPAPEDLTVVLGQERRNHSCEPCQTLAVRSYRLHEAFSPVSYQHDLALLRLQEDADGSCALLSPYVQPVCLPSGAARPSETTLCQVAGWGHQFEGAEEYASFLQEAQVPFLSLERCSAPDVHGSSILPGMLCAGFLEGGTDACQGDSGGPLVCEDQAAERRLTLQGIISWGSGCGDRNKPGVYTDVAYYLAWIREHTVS
PROTOCOL: human FXIIa protease inhibitors, primary screen, biochemical, single well (AID 701);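 note: 0% = enzyme with vehicle only and 100% = no enzyme blank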
STUDY_CONDITIONS: purified human FXIIa, AMC substrate fluorescence, 2 h; at 10 µM; active compounds read high
Out of some 33,000 compounds screened, about 70 (0.2%) were called active. These entries were drawn from the full list.
PROPERTY_MEASURED: inhibition

O=C(Nc1cc(-c2nn(CC(=O)N3CCCCC3)c(=O)c3ccccc23)ccc1N1CCOCC1)c1ccc(Cl)cc1; -11% (inactive)
COc1ccc(OCCCON2C(=O)c3ccccc3C2=O)cc1; 3.44% (inactive)
CCn1c(C)nc2cc(C(=O)NNS(=O)(=O)c3ccc(C)cc3C)ccc21; 5.64% (inactive)
CCN1CCN(C(c2cccnc2)c2cc(Cl)c3cccnc3c2O)CC1 (stereo unspecified); 11.8% (inactive)
COC(=O)c1cc(OC)ccc1-c1ccc(OC)cc1; 4.36% (inactive)

The measured inhibition that CCOCCCNC(=O)C(NC(=O)c1ccc(=O)[nH]c1)c1ccc(C)cc1 (stereo unspecified) showed for Coagulation factor XII (Homo sapiens) (UniProt P00748) is -13.5% (inactive)

The measured inhibition that CCOC(=O)c1cnn(Cc2ccccc2Cl)c1N showed for Coagulation factor XII (Homo sapiens) (UniProt P00748) is -0.31% (inactive)

The measured inhibition that COc1ccccc1-c1nc(C#N)c(N2CCC(C(N)=O)CC2)o1 showed for Coagulation factor XII (Homo sapiens) (UniProt P00748) is -1.38% (inactive)
